System: DU145 cells
procedure.text: Inhibition of cell proliferation, MTT metabolic assay
Format: cell-based
reported.conditions: 96 hours continuous treatment
Would you kindly list IC50 for each of these molecules?
One number for each entry, in µM.

Answered cases to consult:
>  <chemical.structure>
O=c1c2ccccc2[se]n1[C@@H]1O[C@H](CO)[C@H](O)[C@H](O)[C@H]1O

>  <value>
24.3

$$$$
>  <chemical.structure>
CC(=O)OC[C@H]1O[C@@H](n2[se]c3ccccc3c2=O)[C@H](OC(C)=O)[C@@H](OC(C)=O)[C@H]1OC(C)=O

>  <value>
224

$$$$
>  <chemical.structure>
O=c1c2ccccc2[se]n1[C@@H]1O[C@H](CO)[C@@H](O[C@@H]2O[C@H](CO)[C@H](O)[C@H](O)[C@H]2O)[C@H](O)[C@H]1O

>  <value>
24.6

$$$$

// each listed molecule needs a value for IC50
1. CC(=O)OC[C@H]1O[C@@H](NC(=O)Cn2[se]c3ccccc3c2=O)[C@H](OC(C)=O)[C@@H](OC(C)=O)[C@@H]1OC(C)=O
2. O=C(Cn1[se]c2ccccc2c1=O)N[C@@H]1O[C@H](CO)[C@@H](O)[C@H](O)[C@H]1O

145
40.3
